target: T1, Rat HER3 (CD33-[Rat HER3, residues 20-643]-TAG) (rat, UniProt Q62799 20-643); test: solution equilibrium titration (SET), IgG
T1 construct: range 20-643; CD33 leader left out as signal; also called ra HER3-Tag; not shown: C-terminal TAG (e.g. FLAG TAG)
# key: entry, value: pKd
Please treat pKd as minus the base-10 logarithm of the molar concentration.

Query: What pKd value was documented for this binder, MOR09823 (antibody, human IgG1, kappa, V domains shown, tested as IgG) VH: QVQLVESGGGLVQPGGSLRLSCAASGFTFSSYAMSWVRQAPGKGLEWVSVTGAVGRTYYPDSVKGRFTISRDNSKNTLYLQMNSLRAEDTAVYYCARWGDEGFDIWGQGTLVTVSS VL: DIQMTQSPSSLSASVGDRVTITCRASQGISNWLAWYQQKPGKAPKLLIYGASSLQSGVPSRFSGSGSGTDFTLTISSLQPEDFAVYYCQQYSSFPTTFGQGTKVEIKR ?
Reply: 10.96

***
Query: What does the record list as pKd for MOR10703 (antibody, human IgG1, kappa, V domains shown, tested as IgG) VH: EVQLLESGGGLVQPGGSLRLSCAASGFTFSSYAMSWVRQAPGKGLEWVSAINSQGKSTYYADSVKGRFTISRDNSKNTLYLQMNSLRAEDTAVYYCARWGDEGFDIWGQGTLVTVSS VL: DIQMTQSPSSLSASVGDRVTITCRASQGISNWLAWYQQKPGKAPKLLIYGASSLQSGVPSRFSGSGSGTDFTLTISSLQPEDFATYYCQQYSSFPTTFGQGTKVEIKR ?
Reply: 10.40
